meta.source: patent US20230002757A1

biological target: T1, PD-1 protein (human, UniProt Q15116 25-167, limits assumed); experiment: blocking ELISA, PD-1 coated, competitor biotin PD-L1
T1 construct: also called human PD-1
T1 sequence (Q15116 25-167 limits assumed): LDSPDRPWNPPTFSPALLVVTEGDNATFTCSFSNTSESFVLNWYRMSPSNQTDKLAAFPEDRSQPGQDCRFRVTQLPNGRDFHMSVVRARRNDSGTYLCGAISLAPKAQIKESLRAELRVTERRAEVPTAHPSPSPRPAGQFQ
Quick reference for OD450 of PD-L1 bound, antibody at 9.75 µg/mL among some binders
Hi! Could you send only the number? It should be in OD450, unit omitted.

# binder, reported-value
measured = [
    ("504#SS15 (Fc fusion, not shown: a dimerising Fc or GST; small tags and cut ends, VHH-FC construct from HEK293 cells) VHH: QVQLVESGGGLVQPGGSLRLSCAASGFTFSNYAMTWYRQAPGKERELVAAISSAGYTTTYAGSVKGRFTISRDNAKNTVYLQMNSLNPEDTAVYYCNAGRLSYGGSYYPNDDYWGQGTQVTVSS", 3.68),
    ("504#SS10 (Fc fusion, not shown: a dimerising Fc or GST; small tags and cut ends, VHH-FC construct from HEK293 cells) VHH: EVQLVESGGGLVQPGASLRLSCTASGSIFSIYAMGWYRQAPGKQRELVAYITSGGSTTYADSVKGRFTISRDNAKNTVYLQMNSLKPEDTAVYYCNRGNYYRDYKPEFWGQGTQVTVSS", 3.32),
    ("504#SS8 (Fc fusion, VHH-FC construct from HEK293 cells; not shown: The (G4S)3 linker leading to it is left out with it) VHH: EVQVVESGGGLVQAGGSLRLSCTASGRTFSNYAMGWFRQAPGKEREFVASVTWGGSGTFYADSVKGRFTISRDNIKNTVYLQMNSLKPEDTAVYYCAADNVGDSWYSDDYKYWGQGTQVTVSS", 3.27),
    ("504#SS16 (Fc fusion, not shown: a dimerising Fc or GST; small tags and cut ends, VHH-FC construct from HEK293 cells) VHH: EVQVVESGGGLVQAGGSLRLSCAVSGRTFSSYVMGWFRQAPGKERDFVAAISRSGGRTWYADSVKGRFTISFDNAKNTVYLQMNSLKPEDTASYYCNTDYTFAKLTAPDRRNDDWGQGTQVTVSS", 3.26),
    ("504#SS5 (Fc fusion, VHH-FC construct from HEK293 cells; not shown: The (G4S)3 linker leading to it is left out with it) VHH: QVQLVESGGGSAQAGGSLRLSCTASGRPFSIYDMGWFRQAPGKERESVAVINLSRGNTYYADSVKGRFTISLDSAKNTVYLQMNSLKPEDTAVYSCGVDRRQYGLGIPPLADYWGQGTQVTVSS", 0.08),
]

Fill blank: measured OD450 of PD-L1 bound, antibody at 9.75 µg/mL of the binder 504#SS14 (Fc fusion, not shown: a dimerising Fc or GST; small tags and cut ends, VHH-FC construct from HEK293 cells) VHH: QVQLVESGGGLVQPGGSLRLSCVASGFTFSSYWMYWVRQAPGKGLEWVSAIDTTGGSTAYTHSVKGRFTISRDNARNTLYLQMNNLKSEDTAVYYCANSTYFNDDPEYDRWGQGTQVTVSS is ____.
3.36

Fill blank: measured OD450 of PD-L1 bound, antibody at 9.75 µg/mL of the binder 504#SS7 (Fc fusion, VHH-FC construct from HEK293 cells; not shown: The (G4S)3 linker leading to it is left out with it) VHH: QVQLVESGGGLVQAGGSLTLSCAASGRTFNSYAMGWFRQAPGKEREFVAAISQNGGSQGYAEAVKDRFTISRDNTNKVVALQMNSLKPEDTAAYYCAADGDASDRSYAPPRDYKYEYWGQGTQVTVSS is ____.
3.26

Fill blank: measured OD450 of PD-L1 bound, antibody at 9.75 µg/mL of the binder 504#SS22 (Fc fusion, not shown: a dimerising Fc or GST; small tags and cut ends, VHH-FC construct from HEK293 cells) VHH: QVQLVETGGGLVQAGGSLRLSCAASGRTFSSYAMGWFRQAPGKERDFVAGISGSGGNTPYAESVKGRFTISRDNAKNTVALQMNSLKPEDTAVYYCAAKFTSSSFYYRSPREYSSWGQGTQVTVSS is ____.
3.28
